This collection of values is drawn from patent US7842469B2.

test: Luciferase activity of purified RLuc mutants (light output integrated over 10 s, luminometer); format: biochemical; settings: bisdeoxycoelenterazine; relative to native enzyme
Observation type: Activity (relative to RLuc) bdc
// return just the number, without any unit appended

(Q) Item under review: C124A/K300A: RLuc mutant C124A/K300A (protein) MASKVYDPEQRKRMITGPQWWARCKQMNVLDSFINYYDSEKHAENAVIFLHGNAASSYLWRHVVPHIEPVARCIIPDLIGMGKSGKSGNGSYRLLDHYKYLTAWFELLNLPKKIIFVGHDWGAALAFHYSYEHQDKIKAIVHAESVVDVIESWDEWPDIEEDIALIKSEEGEKMVLENNFFVETMLPSKIMRKLEPEEFAAYLEPFKEKGEVRRPTLSWPREIPLVKGGKPDVVQIVRNYNAYLRASDDLPKMFIESDPGFFSNAIVEGAKKFPNTEFVKVKGLHFSQEDAPDEMGKYIASFVERVLKNEQ . Reported Activity (relative to RLuc) bdc?
(A) 1.3
